experiment: soluble on expression in E. coli; label from the status in PepcDB or PDB records
ENDPOINT_NAME: soluble on expression in E. coli

MONOMER_SEQUENCE	ENDPOINT_NAME	MEASURED
MDKRLLKRLSAPLLAAALWTIPLHSHADTQPLTSQDTKLLTSQIVDQYAEHIFYNSGAVGMALVVIDNNQVVNRSFGETQPGNNIRPRPDSLIRIASITKLMTSEIMVKLADDGIVKLTDPLKKYAPKGVNVPSYSAKQPIRLLHLASHTSGLPREQPGGPQKRPVFTWPTKDNRWQWLKLAKVTVPPGVKAAYSNLAYDLLADALSRAAGKPYAHLLRDKITAPLGMKNTTLTPTAEQCKRLMIGVGSSRCGNTVAAAGSGGIYSTPEDMQHWMQQFLASDNSAPKRSAKREQALYFQRGDLVSLKGMDVAGQADALGLGWVYMAPKADLPGIMQKTGGGGGFITYMAMVPEKNIGVFVVVTRSQLTKFSNMSDGVNQLVAELVKNH	soluble on expression in E. coli	not soluble
MGSDKIHHHHHHATCCAANGEGNCPEGTCRKECTNACNTNNQKNKTMAYSKKYTNADFYKDGKFQQDVAMEAMKDMFAFYDVPFTELMAKDMWVTDFGLGDFENVGMGGIFWINDPEYKYFAHAIYLLPGQMIPEHAHVKTDFPAKHESWMVEKGWVYNFSEVGDETPNAPAIPAGHGPIKSKNFVVQKVGDVLRLKKLETFHFMMAGPEGAIVDEWACYHDNAGLRFTNQKAAL	soluble on expression in E. coli	not soluble
MGRTTTPRDGDAALPPEYHGLHVAPVQPGHEAIEWLTPTNRSDRVRVVQHTCECRTTIYELCRSGGLMFIRRTVRTAKGARVHETERLITARMERLWMRLLLGQAR	soluble on expression in E. coli	not soluble
